- experimental target: Cytochrome P450 3A4 (Homo sapiens) (UniProt P08684)
- Sequence (P08684 whole entry, looked up): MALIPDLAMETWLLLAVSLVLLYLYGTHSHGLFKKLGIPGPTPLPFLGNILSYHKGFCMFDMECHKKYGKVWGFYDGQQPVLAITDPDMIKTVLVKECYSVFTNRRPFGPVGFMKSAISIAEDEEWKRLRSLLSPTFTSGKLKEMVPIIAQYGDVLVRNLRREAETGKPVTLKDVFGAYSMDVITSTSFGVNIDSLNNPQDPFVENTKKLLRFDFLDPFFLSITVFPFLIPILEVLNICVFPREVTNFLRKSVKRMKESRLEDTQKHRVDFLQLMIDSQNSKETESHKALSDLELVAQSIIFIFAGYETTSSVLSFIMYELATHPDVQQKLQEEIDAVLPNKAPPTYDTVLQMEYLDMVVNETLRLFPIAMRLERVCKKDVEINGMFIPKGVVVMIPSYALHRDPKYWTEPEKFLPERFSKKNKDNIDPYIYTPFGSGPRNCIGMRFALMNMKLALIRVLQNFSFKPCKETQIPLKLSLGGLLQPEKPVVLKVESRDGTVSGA
- assay info: Cytochrome P450 Family 3 Subfamily A Member 4 (CYP3A4) small molecule antagonists: luciferase reporter qHTS assay (AID 1671201); also: nearly all actives have a fitted effect of over 50% in size
- test context: P450-Glo CYP3A4 enzyme, luciferin luminescence, 1 h; series mostly up to 115 µM
Inconclusive results are not listed. Active and inactive are the calls of the source. Calls follow the shape of the dose curve; as a rule, active = well fitted inhibition curve with a large enough effect in the repeat runs; inconclusive = weak or mixed curves; inactive = no such curve, though single readings can be large or run the other way.
Labels: TRUE (active), FALSE (inactive)

# compound, class name
data = [
    ("Nc1nc(Cl)cc(Cl)n1", "FALSE"),
    ("CC(C)(C)OC(=O)c1ccccc1C(=O)O", "FALSE"),
    ("CC(C)OCCO", "FALSE"),
    ("CC(C)(C)C(=O)CCc1ccc(Cl)cc1", "FALSE"),
    ("CCO[Si](CC(C)C)(OCC)OCC", "TRUE"),
    ("C=CCN1CCc2nc(N)sc2CC1", "FALSE"),
    ("CCOCCOCCOC(C)=O", "FALSE"),
    ("C=CC(C)(CCC=C(C)C)OC(=O)C(C)C (stereo unspecified)", "TRUE"),
    ("C=CC(=O)OCCOCCOCC", "FALSE"),
    ("CC12CCCC=C1C(=O)OC2=O (stereo unspecified)", "FALSE"),
    ("CCCCN=C(N)N=C(N)N", "FALSE"),
    ("COc1cnc(NS(=O)(=O)c2ccc(N)cc2)nc1", "FALSE"),
    ("C[Si](C)(C)O[Si](O)(O)O", "FALSE"),
    ("O=C1CCCc2c(O)cccc21", "FALSE"),
    ("COC(=O)/C=C(\\C)CCC=C(C)C", "TRUE"),
    ("CNC(=O)c1c(I)c(NC(C)=O)c(I)c(C(=O)O)c1I", "FALSE"),
]

---

- assay info: qHTS assay for identifying genotoxic compounds that show differential cytotoxicity against isogenic chicken DT40 cell lines with known DNA damage response pathways - wild type cell line (AID 743012); also: nearly all actives have a fitted effect of over 60% in size
- test context: DT40 wild type chicken cells viability, CellTiter-Glo, 40 h; series mostly up to 68.4 µM
Inconclusive results are not listed. Activity calls are given as the source filed them. Calls come from the whole dose curve; as a rule, active = well fitted cell-killing curve with a large enough effect in the repeat runs; inconclusive = weak or mixed curves, or effect the other way; inactive = no such curve, though single readings can be large or run the other way.
endpoint name: outcome

# molecule, result
records = [
    ("CC/C=C\\CCOC(=O)c1ccccc1", "inactive"),
    ("CN(C)CCC[C@@]1(c2ccc(F)cc2)OCc2cc(C#N)ccc21", "inactive"),
    ("Cc1nnc(C(=O)NC(C)(C)c2nc(C(=O)NCc3ccc(F)cc3)c(O)c(=O)n2C)o1", "inactive"),
    ("CC(O)C(CO)C(C)O (configuration not stated)", "inactive"),
    ("O=C(O)CCC(=O)Nc1ccc(S(=O)(=O)Nc2nccs2)cc1", "inactive"),
    ("Cc1ccc(O)c([N+](=O)[O-])c1", "inactive"),
    ("Cc1ccc(NC(N)=O)cc1", "inactive"),
]

---

- assay info: qHTS assay to identify small molecule antagonists of the estrogen receptor alpha (ER-alpha) signaling pathway using the BG1 cell line in the presence of 0.1 nM 17-beta-estradiol - cell viability counter screen (AID 1259241); also: nearly all actives have a fitted effect of over 40% in size
- test context: VM7Luc4E2 (BG1) viability, CellTiter-Fluor protease, 22 h, 0.1 nM estradiol agonist added; series mostly up to 92.4 µM
- Excerpt: National Center for Advancing Translational Sciences [NCATS] NIH Chemical Genomics Center [NCGC] U.S. Environmental Protection Agency [EPA] National Institutes of Environmental Health Sciences [NIEHS] National Toxicology Program [NTP] U.S. Food and Drug Administration [FDA] Estrogen receptor (ER), a member of the nuclear hormone receptor plays an important role in development, metabolic homeostasis and reproduction. […]
Inconclusive results are not listed. The source made the active and inactive calls. The call rests on the fitted dose curve; in most records, active means well fitted cell-killing curve with a large enough effect in the repeat runs; inconclusive means weak or mixed curves, or effect the other way; inactive means flat fitted curve, though single readings scatter.

# compound, activity change, negative = cytotoxicity
rows = [
    ("CC[N+](C)(CC)CC", "inactive"),
    ("O=C1Nc2ccccc2C1=O", "inactive"),
    ("CCCC[O][Al]([O]CCCC)[O]CCCC", "inactive"),
    ("CC1(C)CC(N)CC(C)(C)N1", "inactive"),
    ("CN(C)c1cc(NC(=O)CNC(C)(C)C)c(O)c2c1C[C@H]1C[C@H]3[C@H](N(C)C)C(=O)C(C(N)=O)=C(O)[C@@]3(O)C(=O)C1=C2O", "inactive"),
    ("C=CCN(CC=C)CC=C", "inactive"),
    ("CCCCCCCOC(C)=O", "inactive"),
    ("O=C(OOC(=O)c1ccccc1)c1ccccc1", "inactive"),
    ("Cc1cc(C)c(N)c(Cl)c1", "inactive"),
    ("COC(=O)c1ccc(C(=O)O)cc1", "inactive"),
    ("CC(=O)OC1CCC(C(C)(C)C)CC1 (centres undefined)", "inactive"),
    ("CC(C)(C)c1ccc(C(=O)CCCCl)cc1", "inactive"),
    ("Cc1cc(N)no1", "inactive"),
    ("C=CCn1cc[n+](C)c1", "inactive"),
]
